Target: human coagulation factor XI (FXI) (human, UniProt P03951 19-625)
Assay: cell-based or functional assay
Item-by-item account of APTT (% NPP)
Hi! Could you send only the number? It should be in % NPP, unit omitted.

* composite human mAb VH2/Vκ4 (antibody, V domains shown, Human IgG4 (S241P hinge mutant) heavy chain and human kappa light chain) VH: QVQLVQSGSELKKPGASVKLSCKASGYTFTRYWMHWVKQAPGQGLEWIGNIYPDSDSTNYDEKFRTRATLTADTSTSTAYMELSSLRSEDTAVYYCTRMGFYAMDYWGQGTTVTVSS VL: DIVMTQSPSSLSASVGDRVTITCKASENVVTYVSWFQQKPGQAPKLLIYGASNRYTGVPDRFSGSGSGTDFTLTISSLQAEDVATYHCGQSYSYPLTFGQGTKLEIKR | 259
* composite human mAb VH1/Vκ3 (antibody, V domains shown, Human IgG4 (S241P hinge mutant) heavy chain and human kappa light chain) VH: QVQLVQSGSELKKPGASVKLSCKASGYTFTRYWMHWVKQAHGQGLEWIGNIYPDSDSTNYDEKFRTRATLTADTSTSTAYMHLSSLTSEDSAVYYCTRMGFYAMDYWGQGTSVTVSS VL: DIVMTQSPSSLSASVGDRVTITCKASENVVTYVSWFQQKPGQAPKLLIYGASNRYTGVPDRFSGSGSGTDFTLTISSLQAEDVADYHCGQSYSYPLTFGQGTKLEIKR | 257

## Task For composite human mAb VH1/Vκ2 (antibody, V domains shown, Human IgG4 (S241P hinge mutant) heavy chain and human kappa light chain) VH: QVQLVQSGSELKKPGASVKLSCKASGYTFTRYWMHWVKQAHGQGLEWIGNIYPDSDSTNYDEKFRTRATLTADTSTSTAYMHLSSLTSEDSAVYYCTRMGFYAMDYWGQGTSVTVSS VL: NIVMTQSPSSLSASVGDRVTITCKASENVVTYVSWFQQKPGQAPKLLIYGASNRYTGVPDRFSGSGSATDFTLTISSLQAEDVADYHCGQSYSYPLTFGQGTKLEIKR , what is its reported APTT (% NPP)?
## Result 248
